The measured values listed here are drawn from patent US20240000786A1.

Molecular target: rNOSIP (Homo sapiens)
Construct: made in house; host or cells: E. coli BL21 (DE3)
Sequence (Q9Y314 with tags, fused parts or gaps): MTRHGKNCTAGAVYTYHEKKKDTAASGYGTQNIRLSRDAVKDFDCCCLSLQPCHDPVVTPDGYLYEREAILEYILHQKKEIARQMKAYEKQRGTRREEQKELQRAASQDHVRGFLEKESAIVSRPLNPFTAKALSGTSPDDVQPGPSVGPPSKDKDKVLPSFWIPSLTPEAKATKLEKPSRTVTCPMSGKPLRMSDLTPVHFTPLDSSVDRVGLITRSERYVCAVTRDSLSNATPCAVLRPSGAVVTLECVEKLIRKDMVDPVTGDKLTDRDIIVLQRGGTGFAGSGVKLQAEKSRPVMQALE
Test: Isothermal titration calorimetry (ITC) of rNOSIP with small molecules / 18 mer iNOS peptide (PP2)
Format: binding
Details: ITC 25° C., small molecule/peptide in cell, NOSIP in syringe
Classify by measured N (Sites): true (1) if it is equal to or exceeds 0.9, false (0) if it is smaller.

# example entries with known answers
{"columns": ["molecule", "assigned-category"],
 "data": [
  ["COc1cc(C)ccc1OCc1nc(C(=O)NCc2n[nH]c3c2CCC3)co1 [MCULE-4640800528]", "true (1)"],
  ["CCN(c1ccccc1)S(=O)(=O)c1ccc(Cl)c(NC(=O)COC(=O)c2ccccc2SCC(=O)Nc2ccc3c(c2)OCO3)c1 [MCULE-8094061955]", "true (1)"],
  ["Cc1ccc(-c2nnn(CC(=O)N(Cc3ccco3)C(C(=O)NC(C)(C)C)c3ccc(O)cc3)n2)cc1 (centres unmarked) [MCULE-8469877005]", "false (0)"],
  ["NS(=O)(=O)c1ccc(CCNC(=O)CCCn2c(SCC(=O)c3ccc(Cl)c(Cl)c3)nc3ccsc3c2=O)cc1 [MCULE-3765839647]", "true (1)"]
]}

Pending molecule:
Challenge: Tell me whether N (Sites) is at least 0.9 here: CCCCN=c1scc(-c2ccc(O)c(C(N)=O)c2)n1N=Cc1cc(Br)c(O)c(OC)c1 [MCULE-8395438746]
Response given: false (0)
